Hello, the source for this data is the Deep4Chem optical property database, in case you need it.

# test: solvent given as SMILES
# condition_set: in ClCCl
Please respond with reported emission maximum for every item in the list.
Could you write the number and then its unit?

compound: C(#Cc1ncnc2ccccc12)c1ccc(N(c2ccccc2)c2ccccc2)cc1
result: 565 nm

compound: COc1cc2c(cc1OC)C1=C[C@H](c3ccccc3)C3(C(C#N)=C(C#N)N1CC2)c1cc(Br)ccc1-c1ccc(Br)cc13
result: 403 nm

compound: O=C1c2ccccc2C2=Nc3ccc4ccccc4[n+]3[B-](F)(F)N12
result: 444 nm

compound: Cc1nc(-c2ccccc2)c2ccccn12
result: 485 nm

compound: COCCOCCOCCOCC(COCCOCCOCCOC)Oc1cc(/C=C/c2ccc(C=C(C#N)C#N)cc2)c(OC(COCCOCCOCCOC)COCCOCCOCCOC)cc1/C=C/c1ccc(C=C(C#N)C#N)cc1
result: 596 nm

compound: c1ccc(-c2nc(-c3ccccc3)nc(-c3ccc(-n4c5ccccc5c5cc6c(cc54)C4(c5ccccc5-c5ccccc54)c4ccccc4-6)cc3)n2)cc1
result: 501.47 nm

Req: Name the reported emission maximum value associated with the compound c1ccc2c(c1)OP1(=NP(Oc3ccc4ccc5cccc6ccc3c4c56)(Oc3ccc4ccc5cccc6ccc3c4c56)=NP(Oc3ccc4ccc5cccc6ccc3c4c56)(Oc3ccc4ccc5cccc6ccc3c4c56)=N1)Oc1ccccc1-2
Resp: 457 nm
